Reference source for all entries: patent US20180171001A1

biological target: Env of HIV-1 strain H086.8 (HIV-1); assay: cell-based or functional assay
readout-kind: neutralization IC50

- binder: "γ59κ18 (antibody, V domains shown) VH: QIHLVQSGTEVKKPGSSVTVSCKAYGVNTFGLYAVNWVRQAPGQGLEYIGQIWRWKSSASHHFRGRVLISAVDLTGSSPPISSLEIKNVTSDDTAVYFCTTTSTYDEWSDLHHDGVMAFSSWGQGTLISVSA VL: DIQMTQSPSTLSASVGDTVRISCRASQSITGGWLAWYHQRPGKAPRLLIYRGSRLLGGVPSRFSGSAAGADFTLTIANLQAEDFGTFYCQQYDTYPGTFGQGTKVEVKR"
  neutralization IC50: "> 15 mg/L"
- binder: "γ4κ3 (antibody, V domains shown) VH: QIHLVQSGTEVKKPGSSVTVSCKAYGVNTFGLYAVNWVRQAPGQSLEYIGQIWRWKSSASHHFRGRVIISAVDLTGSSPPISPLEIKNLTSDDTAVYFCTTTSTSDRWSGLHHDGVMAFSSWGQGTLISVSA VL: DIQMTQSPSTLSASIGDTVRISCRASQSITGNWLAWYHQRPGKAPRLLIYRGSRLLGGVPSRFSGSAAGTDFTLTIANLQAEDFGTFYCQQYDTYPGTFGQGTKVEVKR"
  neutralization IC50: "> 15 mg/L"

[Q] Find the measured neutralization IC50 of γ46κ5 (antibody, V domains shown) VH: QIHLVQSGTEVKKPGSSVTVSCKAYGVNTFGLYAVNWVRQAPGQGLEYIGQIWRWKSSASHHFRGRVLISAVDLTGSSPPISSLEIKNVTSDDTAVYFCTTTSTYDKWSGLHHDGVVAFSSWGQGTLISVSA VL: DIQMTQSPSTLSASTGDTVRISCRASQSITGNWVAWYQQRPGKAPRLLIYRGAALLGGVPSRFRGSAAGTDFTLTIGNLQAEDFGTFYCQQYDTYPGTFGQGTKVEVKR and report it.
[A] 1.75 mg/L
